B1: VAMP4 (parent)
chain: IMALVAAILLLVIIILIVMKYRT

Variants of: B1
Test: protein stability index of a GFP-peptide fusion (GPS, HEK-293T) (PSI 1-6); higher = more stable;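 also: lentivirally expressed fusions sorted by FACS into six bins by GFP to DsRed ratio, PSI derived from sequencing read proportions per bin multiplied by bin number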
Conditions: c terminus: native
variants and their reported protein stability index

Some variants with known protein stability index results, for comparison:
R22C = 4.02
R22I = 3.65
I8C = 3.01
L9H = 2.52
I15D = 2

Look at this variant and give its reported protein stability index. I1D
2.5

Look at this variant and give its reported protein stability index. T23V
3.3

Look at this variant and give its reported protein stability index. K20N
3.25

Look at this variant and give its reported protein stability index. L11M
3.33

Look at this variant and give its reported protein stability index. I17Q
2.31
